SYSTEM: elastase in COPD patient sputum (Homo sapiens (Human), UniProt P08246)
Sequence (P08246 30-267): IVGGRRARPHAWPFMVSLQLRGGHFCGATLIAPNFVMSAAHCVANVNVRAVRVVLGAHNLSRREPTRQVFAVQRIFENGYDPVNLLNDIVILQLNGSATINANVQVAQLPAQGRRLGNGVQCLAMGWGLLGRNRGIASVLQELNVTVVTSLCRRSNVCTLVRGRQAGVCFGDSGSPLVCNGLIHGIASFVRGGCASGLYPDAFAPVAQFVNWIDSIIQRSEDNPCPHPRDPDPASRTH
TEST_DETAILS: Elastase inhibition assay in COPD patient sputum
Format: biochemical
pIC50: −log10 of the molar value.
Tag: condition met if measured pIC50 is not below 9, condition not met if it is.

Example entries begin here.
| TEST_SMILES | CLASS_NAME |
| --- | --- |
| CC(C)[C@H](NC(=O)[C@@H]1CCCN1C(=O)[C@@H](NC(=O)c1ccc(C(=O)NS(=O)(=O)c2ccc(Cl)cc2)cc1)C(C)C)B(O)O | condition met |
| Cc1c(-c2ccnn2C)cc(C(=O)NCc2ccc(S(C)(=O)=O)cn2)c(=O)n1-c1cccc(C(F)(F)F)c1 | condition not met |
| COC(=O)N[C@H](C(=O)N1CCC[C@H]1C(=O)N[C@H](B(O)O)C(C)C)C(C)C | condition met |
| CC(C)[C@H](NC(=O)[C@@H]1CCCN1C(=O)[C@@H](NC(=O)c1ccc(C(=O)NCC(=O)O)cc1)C(C)C)B(O)O | condition met |

In the following, a different compound is considered.
Query string: Textbook exercise: given the entry `Cc1c(-c2ccnn2-c2ccc(C#N)cc2)cc(C(=O)NCC(O)CNC(=O)c2cc(-c3ccnn3-c3ccc(C#N)cc3)c(C)n(-c3cccc(C(F)(F)F)c3)c2=O)c(=O)n1-c1cccc(C(F)(F)F)c1` , state whether its pIC50 is greater than or equal to 9.
Result string: condition not met

###

Attribute: pIC50
SYSTEM: human neutrophil elastase (Homo sapiens (Human))
Sequence (P08246 30-247): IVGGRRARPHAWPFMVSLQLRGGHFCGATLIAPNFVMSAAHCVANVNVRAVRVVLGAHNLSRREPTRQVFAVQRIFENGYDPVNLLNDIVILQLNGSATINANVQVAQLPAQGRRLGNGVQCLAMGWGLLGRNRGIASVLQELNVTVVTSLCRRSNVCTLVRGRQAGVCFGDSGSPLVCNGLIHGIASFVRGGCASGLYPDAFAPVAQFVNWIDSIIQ
TEST_DETAILS: Time dependence of elastase inhibition
Assay type: biochemical
CONDITION: 15 min incubation with inhibitor
Answer as the number alone; pIC50 is minus log10 of concentration in mol/L.

Answered examples (2):
| COMPOUND | pIC50 |
| --- | --- |
| CC(C)[C@H](NC(=O)[C@@H]1CCCN1C(=O)[C@@H](NC(=O)c1ccc(C(=O)NCC(=O)O)cc1)C(C)C)B(O)O [Compound 52] | 11.33 |
| CC(C)[C@H](NC(=O)[C@@H]1CCCN1C(=O)[C@@H](NC(=O)c1ccc(C(=O)NS(=O)(=O)c2ccc(Cl)cc2)cc1)C(C)C)B(O)O [Compound 51] | 10.52 |

pIC50 in this record for Cc1c(-c2ccnn2-c2ccc(C#N)cc2)cc(C(=O)NCC(O)CNC(=O)c2cc(-c3ccnn3-c3ccc(C#N)cc3)c(C)n(-c3cccc(C(F)(F)F)c3)c2=O)c(=O)n1-c1cccc(C(F)(F)F)c1 [Compound 58] : 11.40

###

TEST_DETAILS: in vitro
CONDITION: human, Caco-2, pH 7.4
Protocol: Digoxin, fenoterol, and propranol were used as standards respectively. Transport Method: The transport buffer used in the study was HBSS with 10 mM HEPES at pH 7.40±0.05. Compounds were tested at 2 μM bi-directionally in duplicates. […] Concentrations of test and control compounds in starting solution, donor solution, and receiver solution were quantified by LC/MS/MS methodologies, using peak area ratio of analyte/internal standard. […]
OBSERVATION_TYPE: Papp A→B at 120 min, 2 μM (×10⁻⁶ cm/s)
Supply the numeric figure in ×10⁻⁶ cm/s, leaving out any unit text.

| COMPOUND | Papp A→B at 120 min, 2 μM [×10⁻⁶ cm/s] |
| --- | --- |
| CC(C)NCC(O)COc1cccc2ccccc12 (stereo not shown) | 19.8 |

Papp A→B at 120 min, 2 μM in this record for CC(Cc1ccc(O)cc1)NCC(O)c1cc(O)cc(O)c1 (stereo not shown) : 0.24

###

TEST_DETAILS: in vitro
CONDITION: mouse, microsomes, pH 7.4
Experimental: 100 mM potassium phosphate buffer, pH 7.4. • 2. 10 mM MgCl2 • 3) Compound Dilution: Intermediate solution was prepared by diluting 5 μL of compound or control stock solution (10 mM in DMSO) with DMSO (45 μL) and 1:1 Methanol/Water (450 μL) (concentration=100 μM, 45% MeOH). […]
OBSERVATION_TYPE: microsomal CLint

microsomal CLint in this record for `C[C@]12CC[C@H]3[C@@H](CCC4=CC(=O)CC[C@@]43C)[C@@H]1CC[C@@H]2O` : 597 µL/min/mg

###

TEST_DETAILS: Plasma Stability Assay
Assay type: in vitro ADME, mouse
CONDITION: CD-1 Mouse Plasma, 30 min
Attribute: % Remaining (mean)
Supply the numeric figure in %, leaving out any unit text.

| MOLECULE | % Remaining (mean) [%] |
| --- | --- |
| CC(C)[C@H](NC(=O)[C@@H]1CCCN1C(=O)[C@@H](NC(=O)c1ccc(C(=O)NCC(=O)O)cc1)C(C)C)B(O)O [Compound 52] | 104.8 |
| CC(C)[C@H](NC(=O)[C@@H]1CCCN1C(=O)[C@@H](NC(=O)c1ccc(C(=O)NS(=O)(=O)c2ccc(Cl)cc2)cc1)C(C)C)B(O)O [Compound 51] | 79.4 |
| COC(=O)N[C@H](C(=O)N1CCC[C@H]1C(=O)N[C@H](B(O)O)C(C)C)C(C)C [Compound 50] | 105.2 |

Now for another entry.
% Remaining (mean) in this record for CC(C)[N+](C)(CCOC(=O)C1c2ccccc2Oc2ccccc21)C(C)C [Propantheline] : 39.1

###

SYSTEM: human neutrophil elastase (Homo sapiens (Human))
TEST_DETAILS: Elastase inhibition assay, purified human neutrophil elastase
Format: biochemical
CONDITION: purified HNE
Attribute: Ki
Supply the numeric figure in pM, leaving out any unit text.

Answered examples (2):
| TEST_SMILES | SYSTEM | VALUE_UNITS | Ki |
| --- | --- | --- | --- |
| CC(C)[C@H](NC(=O)[C@@H]1CCCN1C(=O)[C@@H](NC(=O)c1ccc(C(=O)NCC(=O)O)cc1)C(C)C)B(O)O | human neutrophil elastase (Homo sapiens (Human)) | pM | 3.7 |
| Cc1c(-c2ccnn2-c2ccc(C#N)cc2)cc(C(=O)NCC(O)CNC(=O)c2cc(-c3ccnn3-c3ccc(C#N)cc3)c(C)n(-c3cccc(C(F)(F)F)c3)c2=O)c(=O)n1-c1cccc(C(F)(F)F)c1 | human neutrophil elastase (Homo sapiens (Human)) | pM | 2.7 |

Now for another entry.
Ki in this record for `CC(C)[C@H](NC(=O)[C@@H]1CCCN1C(=O)[C@@H](NC(=O)c1ccc(C(=O)NS(=O)(=O)c2ccc(Cl)cc2)cc1)C(C)C)B(O)O` : 34
